Where do the numbers come from? From patent US20240199757A1.

test system: T1, Full-length human NT5E (recombinant, in-house) (human, UniProt P21589 27-549)
T1 construct: also called hNT5E; hNT5EWT
T1 sequence: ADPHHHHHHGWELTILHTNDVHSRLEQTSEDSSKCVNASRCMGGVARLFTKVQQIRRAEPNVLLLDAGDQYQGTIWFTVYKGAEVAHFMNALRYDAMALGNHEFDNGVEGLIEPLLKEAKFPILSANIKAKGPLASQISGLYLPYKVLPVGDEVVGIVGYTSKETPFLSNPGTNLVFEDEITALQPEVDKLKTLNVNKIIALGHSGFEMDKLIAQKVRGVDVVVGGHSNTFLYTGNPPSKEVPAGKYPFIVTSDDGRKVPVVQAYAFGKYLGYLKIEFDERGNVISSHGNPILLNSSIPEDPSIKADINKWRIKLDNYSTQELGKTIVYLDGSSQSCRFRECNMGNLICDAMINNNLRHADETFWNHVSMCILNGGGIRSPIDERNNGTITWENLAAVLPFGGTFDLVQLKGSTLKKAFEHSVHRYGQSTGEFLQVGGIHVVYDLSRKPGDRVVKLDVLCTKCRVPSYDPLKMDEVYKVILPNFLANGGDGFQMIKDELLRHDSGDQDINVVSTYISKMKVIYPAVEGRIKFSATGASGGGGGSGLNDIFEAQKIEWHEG
method: SPR, His-captured NT5E, no ATP
measured endpoint: koff
Please state the value followed by its unit.

Form: binder = 1789 Fab (Fab, V domains shown) VH: EVQLVESGGGLVQPGGSLRLSCAASGFNVSYSSIHWVRQAPGKGLEWVASISSSSGYTYYADSVKGRFTISADTSKNTAYLQMNSLRAEDTAVYYCARNYWGWYPFYYFAFDYWGQGTLVTV VL: DIQMTQSPSSLSASVGDRVTITCRASQSVSSAVAWYQQKPGKAPKLLIYSASSLYSGVPSRFSGSRSGTDFTLTISSLQPEDFATYYCQQGWDYPITFGQGTKVEIKR ; koff = 0.044 s⁻¹
